Kindly state RP-LC retention time for each of the entries shown.
Assay: gradient 5% acetonitrile 3 min, to 50% in 2 min, to 85% in 15 min, held 3 min, 100 µL/min
Details: column: Zorbax Extend-C18 2.1 x 50 mm; eluents: water / acetonitrile, 0.1% formic acid
Numbers only, in s.

Here is how some compounds turned out for RP-LC retention time.
CC1CCCN(C(=O)c2ccc(-n3cccn3)nc2)C1 (stereo not drawn)    825
Cc1ccccc1CNC(=O)c1ncn2c1C(=O)N(C1CC1)C(C)(C(=O)NCc1ccc(F)cc1)C2 (stereo not drawn)    798
CC1(O)C=CC(=O)C=C1    551
CCOC(=O)C1CCN(C(=O)C(C)N2C(=O)C3CCCCN3C(=O)c3ccccc32)CC1 (stereo not drawn)    745

Batch request: RP-LC retention time per item, same order as input.
1. CN(CCc1noc(-c2ccc(C(=O)N3CCCC3)cc2)n1)C(=O)c1c(F)cccc1F
2. CC(C)NC(=O)c1ccc(OCC2CCN(C(=O)c3c(F)cccc3Cl)CC2)cc1
3. O=C(Cn1cc(-c2ccccc2)c2ncnc(N3CCOCC3)c21)NCC1CCCO1 (stereo not drawn)
4. N#Cc1cc(NC(=O)c2ccc3c(c2)OCO3)ccc1N1CC2CC(C1)c1cccc(=O)n1C2 (stereo not drawn)
5. COc1ccc(CCN2C(=O)CC(N3CCN(c4ccccc4)CC3)C2=O)cc1OC (stereo not drawn)
6. Cn1c(=O)n([C@@H]2CCN(C(=O)c3ccc4c(c3)OCO4)C2)c2ncccc21

1. 784
2. 888
3. 644
4. 749
5. 780
6. 688
